# log10 IC50 per record follows
Biological target: proton pump (H+/K+-ATPase) (Sus scrofa, UniProt P19156)
Construct: Gastric vesicles were prepared from hog stomach via centrifugal separation; from tissue; host or cells: hog stomach (gastric vesicles, method of Rabon et al. 1988)
Sequence (P19156 whole entry): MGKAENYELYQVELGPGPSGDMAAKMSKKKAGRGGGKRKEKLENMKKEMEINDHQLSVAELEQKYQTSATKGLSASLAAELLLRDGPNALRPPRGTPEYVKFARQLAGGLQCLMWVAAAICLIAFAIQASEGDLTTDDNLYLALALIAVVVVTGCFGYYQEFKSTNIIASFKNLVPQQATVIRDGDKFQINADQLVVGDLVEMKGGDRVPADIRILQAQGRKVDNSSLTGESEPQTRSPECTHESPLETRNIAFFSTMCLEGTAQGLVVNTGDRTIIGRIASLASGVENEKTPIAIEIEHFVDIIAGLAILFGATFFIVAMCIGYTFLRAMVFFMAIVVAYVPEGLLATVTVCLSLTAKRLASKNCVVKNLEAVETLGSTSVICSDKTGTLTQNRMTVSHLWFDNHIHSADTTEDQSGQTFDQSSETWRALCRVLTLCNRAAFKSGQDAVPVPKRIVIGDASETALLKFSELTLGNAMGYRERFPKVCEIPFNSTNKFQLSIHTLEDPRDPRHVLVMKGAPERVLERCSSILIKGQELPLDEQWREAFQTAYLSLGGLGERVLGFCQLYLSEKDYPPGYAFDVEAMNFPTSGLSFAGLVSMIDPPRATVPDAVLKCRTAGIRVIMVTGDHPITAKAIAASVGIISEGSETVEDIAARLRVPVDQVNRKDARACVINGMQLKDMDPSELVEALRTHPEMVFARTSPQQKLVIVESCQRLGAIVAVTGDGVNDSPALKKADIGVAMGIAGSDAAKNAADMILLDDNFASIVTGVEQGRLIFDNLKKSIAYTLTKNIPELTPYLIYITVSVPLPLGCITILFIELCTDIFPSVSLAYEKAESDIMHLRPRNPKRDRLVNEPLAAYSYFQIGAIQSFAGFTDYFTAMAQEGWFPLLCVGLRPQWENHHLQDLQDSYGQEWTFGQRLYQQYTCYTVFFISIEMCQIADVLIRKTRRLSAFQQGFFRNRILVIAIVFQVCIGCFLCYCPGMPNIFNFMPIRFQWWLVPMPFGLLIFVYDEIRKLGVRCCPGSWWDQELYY
Sequence (P18434 whole entry partner): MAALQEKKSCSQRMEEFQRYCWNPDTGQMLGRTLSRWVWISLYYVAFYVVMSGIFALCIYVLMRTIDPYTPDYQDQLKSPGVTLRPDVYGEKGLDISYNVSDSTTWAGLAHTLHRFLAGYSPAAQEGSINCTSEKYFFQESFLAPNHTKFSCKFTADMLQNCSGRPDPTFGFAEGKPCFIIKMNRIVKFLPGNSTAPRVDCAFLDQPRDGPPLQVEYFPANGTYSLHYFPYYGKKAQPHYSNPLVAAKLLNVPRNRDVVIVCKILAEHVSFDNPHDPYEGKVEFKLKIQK
Experiment: Measurement of inhibitory effects on proton pump (H+/K+-ATPase) activities
Assay type: biochemical
Settings: hog gastric vesicles, K+-specific H+/K+-ATPase activity, Tris-HCl buffer pH 7.4, 37° C. for 40 minutes, malachite green Pi readout
Structures can show the parent of a compound that is named as a salt.
reported-endpoint: log10 IC50 (log10 of the value in nM)

[
  {
    "molecule": "CNCc1cn(S(=O)(=O)c2cccnc2)c2cc(Nc3ccc([N+](=O)[O-])cc3Cl)ccc12 [Example 41, hydrochloride]",
    "value-measured": 2.68
  },
  {
    "molecule": "CNCc1cn(S(=O)(=O)c2cccnc2)c2cc(Nc3ccc(C)nc3C(F)(F)F)ccc12 [Example 115, hydrochloride]",
    "value-measured": 3.11
  },
  {
    "molecule": "CNCc1cn(S(=O)(=O)c2cccc(Cl)c2)c2cc(Nc3ccc(F)cc3Cl)ccc12 [Example 149, hydrochloride]",
    "value-measured": 1.00
  },
  {
    "molecule": "CNCc1cn(S(=O)(=O)c2cccnc2)c2cc(N3CCCc4cc(C)ccc43)ccc12 [Example 260, hydrochloride]",
    "value-measured": 2.58
  },
  {
    "molecule": "Cc1ccc(Nc2ccc3c(C(=O)N(C)C)cn(S(=O)(=O)c4cccnc4)c3c2)c(F)c1",
    "value-measured": 4.38
  },
  {
    "molecule": "CNCc1cn(S(=O)(=O)c2cccc(C(F)(F)F)c2)c2cc(Nc3ccc(OC(F)(F)F)cc3C)ccc12 [Example 189, hydrochloride]",
    "value-measured": 2.81
  },
  {
    "molecule": "CNCc1cn(S(=O)(=O)c2cccc(OC)c2)c2cc(Nc3ccc(OC(F)(F)F)cc3Cl)ccc12 [Example 169, hydrochloride]",
    "value-measured": 1.90
  },
  {
    "molecule": "CNCc1cn(S(=O)(=O)c2ccc(OC)cc2)c2cc(Nc3ccc(C)cc3Cl)ccc12 [Example 219, hydrochloride]",
    "value-measured": 2.43
  },
  {
    "molecule": "CNCc1cn(S(=O)(=O)c2cccc(F)c2)c2cc(Cc3ccc(OC)nc3Cl)ccc12 [Example 292, hydrochloride]",
    "value-measured": 2.81
  },
  {
    "molecule": "CNCc1cn(S(=O)(=O)c2ccc(OC)nc2)c2cc(Nc3ccc(C)cc3F)ccc12 [Example 242, hydrochloride]",
    "value-measured": 3.59
  },
  {
    "molecule": "CNCc1cn(S(=O)(=O)c2cc(C)ccc2C)c2cc(Nc3ccc(C)cc3F)ccc12 [Example 236, hydrochloride]",
    "value-measured": 3.31
  },
  {
    "molecule": "CNc1cn(S(=O)(=O)c2cccnc2)c2cc(Nc3ccc(C)cc3F)ccc12 [Example 333, hydrochloride]",
    "value-measured": 3.77
  },
  {
    "molecule": "CNCc1cn(S(=O)(=O)c2cccnc2)c2cc(Nc3ccc(Cl)cc3C(F)(F)F)ccc12 [Example 31, hydrochloride]",
    "value-measured": 2.96
  },
  {
    "molecule": "CNCc1cn(S(=O)(=O)c2cccnc2)c2cc(Nc3ccc(OC)cc3F)ccc12 [Example 49, hydrochloride]",
    "value-measured": 2.51
  }
]

Origin of measurements: patent US9676714B2
